Biological target: Asf1 1-156 (Homo sapiens, UniProt Q9Y294)
Construct: made in house
Sequence (Q9Y294 1-156): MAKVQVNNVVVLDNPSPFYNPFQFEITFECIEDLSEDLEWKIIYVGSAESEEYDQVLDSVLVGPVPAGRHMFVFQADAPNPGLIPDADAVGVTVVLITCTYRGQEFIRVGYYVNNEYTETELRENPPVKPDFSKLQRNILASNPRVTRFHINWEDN
Assay: Calorimetry (ITC) of the interaction of peptides with Asf1 1-156
Format: binding
Details: ITC, 50 mM Tris buffer pH 7.4 at 5° C., Asf1 1-156; read-out: Kd
Where no end group is shown, it is not given here.
ASSAY_READOUT: pKd
In textbook form, pKd equals minus log to base ten of the concentration in mol/L.

Prompt: Returns the measured pKd for the input sequence. Input: GAMGTIMPKDIQLARRIRGAGASRTLYGFG [SEQ ID NO: 39]
Response: 6.46

Prompt: Also check GAMGTLTPKEAELARRIRGAGGVTLNGFG [SEQ ID NO: 48]
Response: 7.22

Prompt: And the next one, GAMGTLTPKEAELARRIRGAGGRTLNGFG [SEQ ID NO: 42] ?
Response: 6.74

Prompt: Consider next the sequence GAMGLTAAEHAKRSTLTPKEAQLARRIRGAGGVTLNGFG [SEQ ID NO: 52] in the same way.
Response: 7.52

Prompt: Okay, and GAMGTITPKEEQLRRRIEGAGASVTLNGFG [SEQ ID NO: 46] ?
Response: 6.38

Prompt: Field entry: GAMGRVPPAVRKLGNASTERKWAELARRIRGAGGVTLNGFG [SEQ ID NO: 65]
Response: 7.22

Prompt: # iterate: GAMGTLTPKEAELARRIRGAGASRTLNGFG [SEQ ID NO: 43]
Response: 6.46

Prompt: Same lookup for GAMGTRTPKERRLARRIRGAGGRTLNGFG [SEQ ID NO: 56] , please.
Response: 7.52

Prompt: Item: RRPRRPRRPRRPRRPGAMGTITPKEAQLARRIRGAGGVTLNGFGCA [SEQ ID NO: 50]
Response: 6.38

Prompt: Request: GAMGTITPKEAQLARRIRGAGGVTLNGFG [SEQ ID NO: 47]
Response: 6.46
